pIC50: −log10 of the molar value.
Below are pIC50 values measured for cyclo-oxygenase (Bos taurus, UniProt O62664).

In [3]: df
Out[3]:
                                   molecule  experimental_result
0  Cc1cc(C(=O)O)cc(C)c1C(O)c1cc(-n2ccnc2)ccc1Cl (centres unmarked)               < 4.00
1  Cc1cc(C)c(C(O)c2cccc(-n3ccnc3)c2)c(C)c1 (centres unmarked)               < 3.00
2  Cc1cc(C)c(C(O)c2ccc(-n3ccnc3)c(Cl)c2)c(C)c1 (centres unmarked)               < 4.00
3  COC(=O)c1cc(C)c(C(O)c2cc(-n3ccnc3)ccc2C)c(C)c1 (centres unmarked)               < 4.00
4  Cc1ccc(-n2ccnc2)cc1C(O)c1c(C)cc(C(=O)O)cc1C (centres unmarked)               < 4.00
5  Cc1cc(C)c(C(O)c2cc(-n3ccnc3)ccc2Cl)c(C)c1 (centres unmarked)               < 3.00
6  Cc1ccc(-n2ccnc2)cc1C(O)c1c(C)cc(C(=O)OC(C)C)cc1C (centres unmarked)               < 4.00

Continue with the next molecule.
Q: Under cyclo-oxygenase (Bos taurus, UniProt O62664): pIC50 value of CCOC(=O)c1cc(C)c(C(O)c2cc(-n3ccnc3)ccc2C)c(C)c1 (centres unmarked) ?
Ans: < 4.00

----------
- Test target: thromboxane synthetase (Homo sapiens, UniProt P24557)
- Sequence (P24557 whole entry): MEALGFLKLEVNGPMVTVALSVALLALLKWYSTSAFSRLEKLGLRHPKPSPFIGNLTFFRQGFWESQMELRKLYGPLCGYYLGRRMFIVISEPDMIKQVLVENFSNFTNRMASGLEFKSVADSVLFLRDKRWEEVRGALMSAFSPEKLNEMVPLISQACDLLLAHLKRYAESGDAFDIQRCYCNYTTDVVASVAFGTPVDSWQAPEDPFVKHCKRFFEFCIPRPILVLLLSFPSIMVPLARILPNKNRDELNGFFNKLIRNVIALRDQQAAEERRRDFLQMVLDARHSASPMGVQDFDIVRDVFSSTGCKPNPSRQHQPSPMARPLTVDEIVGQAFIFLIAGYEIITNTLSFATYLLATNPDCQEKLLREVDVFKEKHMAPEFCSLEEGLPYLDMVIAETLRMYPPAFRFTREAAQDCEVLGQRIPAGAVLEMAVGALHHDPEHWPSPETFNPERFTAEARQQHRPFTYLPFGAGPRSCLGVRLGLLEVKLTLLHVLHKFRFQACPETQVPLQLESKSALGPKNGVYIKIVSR
Here the recorded IC50 is given for each entry.
State the result as a value with its unit after it.

>>> df
                                   molecule  experimental_result
0  Cc1cc(C(=O)O)cc(C)c1C(O)c1cc(-n2ccnc2)ccc1Cl (stereo not shown)                52 nM
1  Cc1ccc(-n2ccnc2)cc1C(O)c1c(C)cc(C(=O)O)cc1C (stereo not shown)                22 nM
2  Cc1cc(C)c(C(O)c2ccc(-n3ccnc3)c(Cl)c2)c(C)c1 (stereo not shown)               180 nM
3  Cc1cc(C)c(C(O)c2cccc(-n3ccnc3)c2)c(C)c1 (stereo not shown)               340 nM
4  COC(=O)c1cc(C)c(C(O)c2cc(-n3ccnc3)ccc2C)c(C)c1 (stereo not shown)               700 nM

Q: For the molecule shown here, Cc1cc(C)c(C(O)c2cc(-n3ccnc3)ccc2Cl)c(C)c1 (stereo not shown) , give the reported IC50.
Ans: 2300 nM

Q: Next record, please: Cc1cc(C)c(C(O)c2cc(-n3ccnc3)ccc2C)c(C)c1 (stereo not shown)
Ans: 820 nM
